Tested on: ncRNAs (SEQ ID NO 28-89)
Assay comment: ncRNA arrays of melanocytes, keratinocytes, normal skin, melanoma cell lines and patient samples
Design: species or system human
Run parameters: melanoma patient 30 sample compared to normal skin
Assign Criterion met whenever ncRNA array expression, patient 30 does not fall below -0.3; assign Criterion not met whenever it does.

Worked examples, 2 substances total:
SEQ ID NO 79 (GTGTGTACTGATGTCAAAGACCAAATGGATGCCCCTGTGGCCAACAGTACCTTGTTAAAC; listed as DNA, chemistry not given here; listed as Homo sapiens)
Criterion met
SEQ ID NO 33 (TATTGAATGTACACAAGTAATGATGGAGTTTGATTATATGGTTCATTTTCATTTATCCTA; DNA, backbone and methylation of C not given here; listed as Homo sapiens)
Criterion met

(Q) I'd appreciate it if you could say whether SEQ ID NO 52 (TTTTCTTAGTCTTTTTACTTTTTCCATTATATTCTTTGATATATTTGAGAAAATGGCTTG; listed as DNA, chemistry not given here; listed as Homo sapiens) has ncRNA array expression, patient 30 at least equal to -0.3.
(A) Criterion not met

(Q) I'd appreciate it if you could say whether SEQ ID NO 28 (CTTAATGTATCTAAGGTTGGCTTAATCCTGTCTAAAATCAAGGTATTGGACTAGAACAAT; DNA, backbone and methylation of C not given here; listed as Homo sapiens) has ncRNA array expression, patient 30 at least equal to -0.3.
(A) Criterion not met

(Q) I'd appreciate it if you could say whether SEQ ID NO 84 (TTATTAAAAGGACTGAGGATCATGTGTGTTGGTGTGTCCCGGAGTCTGCTCTAAGGTAAA; listed as DNA, chemistry not given here; listed as Homo sapiens) has ncRNA array expression, patient 30 at least equal to -0.3.
(A) Criterion met

(Q) I'd appreciate it if you could say whether SEQ ID NO 67 (TTCCCTATTCCATCCTTTGATGGGTGGCCTGTTACACGTTTGGAAATAAAAACAAGTGGG; listed as DNA, chemistry not given here; listed as Homo sapiens) has ncRNA array expression, patient 30 at least equal to -0.3.
(A) Criterion not met

(Q) I'd appreciate it if you could say whether SEQ ID NO 81 (CTAGGGGCGGAGTTTCTCGTAAGGGGCAAGGCCAAGGCATCTTGTATTGGGGCTGACAGG; listed as DNA, chemistry not given here; listed as Homo sapiens) has ncRNA array expression, patient 30 at least equal to -0.3.
(A) Criterion met

(Q) I'd appreciate it if you could say whether SEQ ID NO 49 (CGATGGCTTGTCATTGTCCCCTGTCCTGGAACAATAAAGCAAGTGCCTTGTGGTCTCACT; listed as DNA, chemistry not given here; listed as Homo sapiens) has ncRNA array expression, patient 30 at least equal to -0.3.
(A) Criterion not met

(Q) I'd appreciate it if you could say whether SEQ ID NO 73 (AAAGTTTCCCCATAATGCTCTTGCAAGTGAATATGAGCTGTGGTTTTTGCAGTGGAGTTA; listed as DNA, chemistry not given here; listed as Homo sapiens) has ncRNA array expression, patient 30 at least equal to -0.3.
(A) Criterion met

---

A collection of substances and their measured ncRNA array expression, patient 21
Test system: ncRNAs (SEQ ID NO 28-89)
Assay comment: ncRNA arrays of melanocytes, keratinocytes, normal skin, melanoma cell lines and patient samples
Parameters: species or system human
Run parameters: melanoma patient 21 sample compared to normal skin
Give your answer as a number; write no unit.

Look over these answered cases.
SEQ ID NO 64 (TTGCCTAGGAACAAAGAAGGCTTGTGAGGAGATCAAGGAACTTACATGAAATTGTAGGAA; listed as DNA, chemistry not given here; listed as Homo sapiens)
2.601
SEQ ID NO 85 (TGAGGGGAGAGGGGATGGGAAACATTAGGGCTGGGTTCATGTAAAGGGACCAGCATTGTG; listed as DNA, chemistry not given here; listed as Homo sapiens)
−3.4
SEQ ID NO 68 (CAAAAAGAAATCTTGTTTACTTGTAAAAATATAGACTACCTCCTACTTGCCACCGTTAAG; listed as DNA, chemistry not given here; listed as Homo sapiens)
−1.385

# context switch: different substance, same ncRNA array expression, patient 21
(Q) # ncRNA array expression, patient 21 lookup, item SEQ ID NO 39 (TGATCCTGTAAATCATGTTTTTGTTTATTCCCCAACACTAACCTCACTCCTTTACTATTC; listed as DNA, chemistry not given here; listed as Homo sapiens)
(A) −1.232
